Target: c-Met D1228H (Homo sapiens, UniProt P08581, D1228H)
Sequence (P08581 25-1390 D1228H): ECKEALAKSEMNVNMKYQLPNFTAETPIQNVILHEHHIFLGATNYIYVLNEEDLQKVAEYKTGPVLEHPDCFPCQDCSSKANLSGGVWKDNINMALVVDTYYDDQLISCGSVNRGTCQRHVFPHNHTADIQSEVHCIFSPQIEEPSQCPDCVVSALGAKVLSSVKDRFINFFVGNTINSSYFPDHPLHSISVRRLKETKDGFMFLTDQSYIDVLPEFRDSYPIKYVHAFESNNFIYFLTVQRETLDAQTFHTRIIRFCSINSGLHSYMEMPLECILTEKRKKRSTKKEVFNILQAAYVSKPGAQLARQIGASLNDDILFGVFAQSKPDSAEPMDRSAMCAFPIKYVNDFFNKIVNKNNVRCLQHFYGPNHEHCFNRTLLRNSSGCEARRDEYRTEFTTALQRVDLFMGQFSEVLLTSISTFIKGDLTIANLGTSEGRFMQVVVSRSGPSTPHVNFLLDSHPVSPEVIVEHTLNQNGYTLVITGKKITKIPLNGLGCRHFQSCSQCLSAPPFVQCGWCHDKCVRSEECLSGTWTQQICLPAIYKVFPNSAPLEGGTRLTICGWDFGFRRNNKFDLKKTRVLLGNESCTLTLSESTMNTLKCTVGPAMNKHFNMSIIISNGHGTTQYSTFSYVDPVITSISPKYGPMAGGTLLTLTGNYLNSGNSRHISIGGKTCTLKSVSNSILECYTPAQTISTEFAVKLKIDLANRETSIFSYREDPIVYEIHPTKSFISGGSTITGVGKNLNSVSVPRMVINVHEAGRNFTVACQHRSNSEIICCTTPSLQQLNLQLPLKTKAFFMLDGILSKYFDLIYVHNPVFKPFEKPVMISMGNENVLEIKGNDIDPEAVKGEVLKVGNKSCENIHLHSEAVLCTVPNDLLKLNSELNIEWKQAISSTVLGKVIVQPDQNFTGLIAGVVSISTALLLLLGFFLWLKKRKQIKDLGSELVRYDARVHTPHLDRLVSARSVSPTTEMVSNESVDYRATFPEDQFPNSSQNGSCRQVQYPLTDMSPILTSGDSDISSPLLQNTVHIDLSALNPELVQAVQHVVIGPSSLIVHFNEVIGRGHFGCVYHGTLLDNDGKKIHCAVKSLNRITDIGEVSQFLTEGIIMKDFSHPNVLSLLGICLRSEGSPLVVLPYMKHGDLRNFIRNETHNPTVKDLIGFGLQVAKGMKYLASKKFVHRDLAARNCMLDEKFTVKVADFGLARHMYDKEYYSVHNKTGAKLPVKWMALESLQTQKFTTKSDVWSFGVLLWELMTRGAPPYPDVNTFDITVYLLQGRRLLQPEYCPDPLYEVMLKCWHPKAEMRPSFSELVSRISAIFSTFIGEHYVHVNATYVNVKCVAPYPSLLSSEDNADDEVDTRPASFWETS
Assay: Tyrosine kinase HTRF assay, c-Met D1228H
pIC50: −log10 of the molar value.
Observed property: pIC50

1) O=C(Nc1ccc(Oc2ccnc(Cl)c2Cl)c(F)c1)c1nc(-c2ccc(F)c(Cl)c2)cs1 [Compound 51am]: 7.53

====

Test: Pharmacokinetic study in BALB/c mice
Type: in vivo
Settings: male, mouse, plasma, po, p.o. (10 mg/kg)
Method: Identification of drugs with an acceptable balance of potency, physical properties, and pharmacokinetics (PK) has always been a challenge that often hinders evaluation of the compounds in xenograft models and therapeutic use in clinical practice. Therefore, the PK profile of compound 51am was evaluated in BALB/c mice after intravenous (i.v.) injection and oral administration (p.o.) because of its excellent in vitro activity. […]
Observed property: Tmax (h)

1. O=C(Nc1ccc(Oc2ccnc(Cl)c2Cl)c(F)c1)c1nc(-c2ccc(F)c(Cl)c2)cs1 [Compound 51am]: 4.1

====

Observed property: melting point

1. O=C(Nc1ccc(Oc2ccnc(Cl)c2)c(F)c1)c1nc(-c2ccc(F)c(F)c2)cs1 [Compound 51al]: 170 to 172 °C
2. O=C(Nc1ccc(Oc2ncnc3sccc23)c(F)c1)c1nc(-c2ccccc2)cs1 [Compound 51u]: 78 to 80 °C
3. COc1cc2nccc(Oc3ccc(NC(=O)c4nc(-c5ccccc5)ns4)cc3)c2cc1OC [Compound 51a]: 145 to 147 °C
4. O=C(Nc1ccc(Oc2ccnc(Cl)c2)c(F)c1)c1nc(-c2cccc(F)c2)cs1 [Compound 51ab]: 189 to 191 °C

====

Molecular target: c-Met Y1230H (Homo sapiens, UniProt P08581, Y1230H)
Sequence (P08581 25-1390 Y1230H): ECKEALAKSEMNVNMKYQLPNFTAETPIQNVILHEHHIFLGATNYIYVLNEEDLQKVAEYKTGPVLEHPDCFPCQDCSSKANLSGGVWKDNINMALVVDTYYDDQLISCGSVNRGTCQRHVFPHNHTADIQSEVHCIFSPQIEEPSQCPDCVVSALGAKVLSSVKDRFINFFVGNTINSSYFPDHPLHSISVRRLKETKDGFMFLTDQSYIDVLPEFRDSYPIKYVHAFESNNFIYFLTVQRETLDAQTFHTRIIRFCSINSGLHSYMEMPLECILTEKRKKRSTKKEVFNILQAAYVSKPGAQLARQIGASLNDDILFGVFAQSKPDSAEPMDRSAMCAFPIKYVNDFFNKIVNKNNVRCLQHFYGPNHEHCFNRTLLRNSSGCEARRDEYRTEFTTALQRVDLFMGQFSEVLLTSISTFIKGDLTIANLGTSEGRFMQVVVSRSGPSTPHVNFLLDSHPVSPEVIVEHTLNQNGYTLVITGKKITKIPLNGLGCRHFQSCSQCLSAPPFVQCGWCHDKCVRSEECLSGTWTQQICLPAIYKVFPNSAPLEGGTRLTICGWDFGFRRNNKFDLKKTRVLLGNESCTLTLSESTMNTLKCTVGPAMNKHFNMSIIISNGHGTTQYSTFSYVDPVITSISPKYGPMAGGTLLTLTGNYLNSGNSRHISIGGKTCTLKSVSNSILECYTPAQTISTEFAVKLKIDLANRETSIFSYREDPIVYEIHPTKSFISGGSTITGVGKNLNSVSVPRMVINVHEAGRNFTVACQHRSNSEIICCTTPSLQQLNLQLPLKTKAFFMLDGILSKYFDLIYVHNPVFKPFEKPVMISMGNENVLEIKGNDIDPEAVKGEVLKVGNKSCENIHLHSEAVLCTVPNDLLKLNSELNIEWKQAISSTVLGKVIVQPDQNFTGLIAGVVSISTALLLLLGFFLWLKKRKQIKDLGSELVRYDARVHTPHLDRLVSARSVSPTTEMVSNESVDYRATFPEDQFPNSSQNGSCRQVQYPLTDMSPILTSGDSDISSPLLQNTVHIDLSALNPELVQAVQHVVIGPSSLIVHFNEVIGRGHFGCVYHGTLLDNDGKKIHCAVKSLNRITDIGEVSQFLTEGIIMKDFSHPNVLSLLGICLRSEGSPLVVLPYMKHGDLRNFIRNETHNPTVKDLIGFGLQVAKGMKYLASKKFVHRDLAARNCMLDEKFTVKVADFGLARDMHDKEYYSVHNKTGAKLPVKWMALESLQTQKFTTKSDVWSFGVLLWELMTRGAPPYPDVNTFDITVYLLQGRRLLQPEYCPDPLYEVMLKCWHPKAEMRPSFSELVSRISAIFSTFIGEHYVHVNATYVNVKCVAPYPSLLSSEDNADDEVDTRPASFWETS
Experiment: Tyrosine kinase HTRF assay, c-Met Y1230H
pIC50: −log10 of the molar value.
Observed property: pIC50

1) O=C(Nc1ccc(Oc2ccnc(Cl)c2Cl)c(F)c1)c1nc(-c2ccc(F)c(Cl)c2)cs1 [Compound 51am]: 7.34

====

Target: c-kit (Homo sapiens)
Construct: purchased Invitrogen (Waltham, MA)
Sequence (P10721 26-976): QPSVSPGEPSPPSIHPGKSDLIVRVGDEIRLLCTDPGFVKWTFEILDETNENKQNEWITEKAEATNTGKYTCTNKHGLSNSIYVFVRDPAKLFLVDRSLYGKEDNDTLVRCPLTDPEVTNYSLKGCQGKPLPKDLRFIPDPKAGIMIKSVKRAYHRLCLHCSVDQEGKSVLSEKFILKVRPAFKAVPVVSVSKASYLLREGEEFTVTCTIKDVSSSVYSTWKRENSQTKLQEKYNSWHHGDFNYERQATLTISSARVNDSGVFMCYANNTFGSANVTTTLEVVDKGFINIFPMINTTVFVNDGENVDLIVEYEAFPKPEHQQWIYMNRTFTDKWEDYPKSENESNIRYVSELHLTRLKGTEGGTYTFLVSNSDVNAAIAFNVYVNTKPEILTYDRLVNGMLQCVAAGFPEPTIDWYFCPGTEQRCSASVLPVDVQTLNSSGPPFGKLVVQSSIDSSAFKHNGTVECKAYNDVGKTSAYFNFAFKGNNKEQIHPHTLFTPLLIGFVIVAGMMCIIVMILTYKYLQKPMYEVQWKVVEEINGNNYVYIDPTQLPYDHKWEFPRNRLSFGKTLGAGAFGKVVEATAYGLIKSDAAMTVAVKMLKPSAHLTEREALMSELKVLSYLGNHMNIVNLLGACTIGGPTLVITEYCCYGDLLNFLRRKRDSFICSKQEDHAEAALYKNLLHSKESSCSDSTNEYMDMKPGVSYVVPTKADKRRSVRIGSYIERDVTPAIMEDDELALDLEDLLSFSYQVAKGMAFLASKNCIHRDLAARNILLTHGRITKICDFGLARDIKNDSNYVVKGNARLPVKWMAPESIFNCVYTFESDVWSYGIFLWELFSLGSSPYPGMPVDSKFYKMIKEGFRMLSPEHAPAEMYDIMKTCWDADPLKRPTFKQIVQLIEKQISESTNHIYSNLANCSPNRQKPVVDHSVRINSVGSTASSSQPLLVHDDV
Assay: Tyrosine kinase HTRF assay, c-kit
Assay type: biochemical
pIC50: −log10 of the molar value.
Observed property: pIC50

1) O=C(Nc1ccc(Oc2ccnc(Cl)c2Cl)c(F)c1)c1nc(-c2ccc(F)c(Cl)c2)cs1 [Compound 51am]: 8.31

====

Assay: Pharmacokinetic study in BALB/c mice
Assay type: in vivo
Details: male, mouse, plasma, oral, p.o. (10 mg/kg) vs i.v. (1.5 mg/kg), read-out: F (oral bioavailability)
Observed property: bioavailability (%)

1. O=C(Nc1ccc(Oc2ccnc(Cl)c2Cl)c(F)c1)c1nc(-c2ccc(F)c(Cl)c2)cs1 [Compound 51am]: 69

====

Assay: Pharmacokinetic study in BALB/c mice
Type: in vivo
Conditions: male, mouse, plasma, po, p.o. (10 mg/kg)
Observed property: AUC(0-inf)

1. O=C(Nc1ccc(Oc2ccnc(Cl)c2Cl)c(F)c1)c1nc(-c2ccc(F)c(Cl)c2)cs1 [Compound 51am]: 11500 ng·h/mL

====

Test: Pharmacokinetic study in BALB/c mice
Assay type: in vivo
Settings: male, mouse, plasma, po, p.o. (10 mg/kg)
Observed property: Cmax

1) O=C(Nc1ccc(Oc2ccnc(Cl)c2Cl)c(F)c1)c1nc(-c2ccc(F)c(Cl)c2)cs1 [Compound 51am]: 1760 ng/mL
